# PROCEDURE_SUMMARY: chemical genetic growth profiling, strain panel (AID 1159580);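 note: tested at 20 µM; growth read once vehicle control cultures reached saturation at 30 °C; 1 = growth at the plate median or of vehicle wells; lower values mean less growth of the strain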
# ASSAY_CONTEXT: S. cerevisiae deletion strains, growth OD, locus YMR219W, strain ESC1, active compounds read low
In all, about 5,500 compounds went through this assay and about 2,000 (36%) were called active. Inconclusive results (about 18%) are left out. This is one part of the list.
Here, each record is paired with measured normalized growth data.

{"columns": ["MOLECULE", "normalized growth"],
 "data": [
  ["O=C(O)CCNC(=S)Nc1cccc(C(F)(F)F)c1", "1 (inactive)"],
  ["O=c1[nH]c(-c2cc(Br)cs2)nc2ccc(Cl)cc12", "1.13 [resistant] (active)"],
  ["CC/C(=N/Oc1ccc(C(F)(F)F)cn1)c1ccc(-c2ccccc2F)cc1", "1 (inactive)"],
  ["O=C(O)CC(CC(=O)O)c1ccc(C(F)(F)F)cc1", "0.999 (inactive)"],
  ["O=C1CC(c2ccccc2)=NO1", "0.26 (active)"],
  ["Cc1ccc(CSC(=N)N)cc1", "1 (inactive)"],
  ["Cc1ccc(CS/C(N)=N\\N)cc1", "0.989 (inactive)"],
  ["CN1c2ccccc2C(=O)NC1c1cc(Br)cs1 (stereo not drawn)", "1.01 (inactive)"],
  ["CCOC(=O)CCc1cc(N=Cc2cc(Cl)cc(Cl)c2O)c(O)c(N=Cc2cc(Cl)cc(Cl)c2O)c1", "0.278 (active)"],
  ["S=C(NCCCn1ccnc1)Nc1cc(Cl)ccc1Cl", "1 (inactive)"],
  ["O=C(CCN1CCOCC1)c1ccc2c(c1)OCCO2", "0.99 (inactive)"],
  ["CCOC(=O)c1c(-c2ccc(F)cc2)csc1N", "0.93 (active)"],
  ["O=S(=O)(c1cc(Br)c(Br)s1)N1CCCCC1", "1 (inactive)"]
]}
